targetDesc: UniProt:P07550
Sequence (P07550 whole entry): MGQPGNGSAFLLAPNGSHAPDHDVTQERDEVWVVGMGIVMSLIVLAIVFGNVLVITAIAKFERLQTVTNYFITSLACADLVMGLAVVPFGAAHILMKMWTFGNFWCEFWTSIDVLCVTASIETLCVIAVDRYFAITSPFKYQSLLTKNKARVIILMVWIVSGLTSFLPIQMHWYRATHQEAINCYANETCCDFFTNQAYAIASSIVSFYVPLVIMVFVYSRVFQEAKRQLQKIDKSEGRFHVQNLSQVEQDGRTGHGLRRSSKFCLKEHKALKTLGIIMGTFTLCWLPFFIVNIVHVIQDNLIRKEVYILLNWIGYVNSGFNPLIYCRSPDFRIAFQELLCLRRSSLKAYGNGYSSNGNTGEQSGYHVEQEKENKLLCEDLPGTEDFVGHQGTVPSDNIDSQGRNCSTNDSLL
Mark rule met for EC50 under 50 pM, rule not met if at or over.

Consider the worked cases shown below.
>>> categorylabel("C[C@H](Cc1ccc2[nH]c(C(=O)NCc3ccc(O)cc3)cc2c1)NC[C@H](O)c1ccc(O)c(CO)c1")
"rule not met"
>>> categorylabel("C[C@H](Cc1ccc2[nH]c(C(=O)NCc3c(F)cccc3F)cc2c1)NC[C@H](O)c1ccc(O)c(CO)c1")
"rule not met"
>>> categorylabel("COc1cccc(OC)c1CNC(=O)c1cc2cc(C[C@@H](C)NC[C@H](O)c3ccc(O)c(CO)c3)ccc2n1Cc1ccccc1")
"rule not met"
>>> categorylabel("C[C@H](Cc1ccc2[nH]c(C(=O)N(C)Cc3ccccc3)cc2c1)NC[C@H](O)c1ccc(O)c(CO)c1")
"rule met"
>>> categorylabel("CCn1c(C(=O)NCc2c(OC)cccc2OC)cc2cc(C[C@@H](C)NC[C@H](O)c3ccc(O)c(CO)c3)ccc21")
"rule not met"
>>> categorylabel("CSc1ccccc1CNC(=O)c1cc2cc(C[C@@H](C)NC[C@H](O)c3ccc(O)c(CO)c3)ccc2[nH]1")
"rule met"

Kindly review the next molecule as well.
Query: Please let me know if COc1cccc(OC)c1CNC(=O)c1cc2cc(C[C@@H](C)NC[C@H](O)c3ccc(O)c(CO)c3)ccc2n1C shows EC50 below 50 pM.
Response: rule not met
